test system: vaccinia virus; settings: 5 μM

molecule | unit_of_measure | % Viability
CC(CCCOS(=O)(=O)O)C1CCC2C3C(OCCCN)CC4CC(OCCCN)CCC4(C)C3CC(OCCCN)C12C (stereo not shown) [CSA-21] | % | 100.00
CC(CCCOCCCN)C1CCC2C3C(OCCCN)CC4CC(OCCCN)CCC4(C)C3CC(OCCCN)C12C (stereo not shown) [CSA-25] | % | 97.40
CCCCCN(CCCCC)CCCC(C)C1CCC2C3C(OCCCN)CC4CC(OCCCN)CCC4(C)C3CC(OCCCN)C12C.Cl.Cl.Cl.Cl (stereo not shown) [CSA-90] | % | 23.67
CCCCCCCCCCCCCCCCNCCCC(C)C1CCC2C3C(OCCCN)CC4CC(OCCCN)CCC4(C)C3CC(OCCCN)C12C.Cl.Cl.Cl.Cl (stereo not shown) [CSA-92] | % | 0.00
